Structures can show the parent of a compound that is named as a salt.
Kindly supply the reported pIC50 values for the records listed here.
pIC50 (log units): -log10 of the concentration in mol/L.

Recall the recorded pIC50 for COc1ccc2cc(C(=O)[C@@H]3CN(C4CCC4)CC[C@@H]3C(C)C)ccc2c1CC#N (stereo in doubt) [Example 186a] with UniProt Q8NHM5 and state it.
Sequence (Q8NHM5 whole entry): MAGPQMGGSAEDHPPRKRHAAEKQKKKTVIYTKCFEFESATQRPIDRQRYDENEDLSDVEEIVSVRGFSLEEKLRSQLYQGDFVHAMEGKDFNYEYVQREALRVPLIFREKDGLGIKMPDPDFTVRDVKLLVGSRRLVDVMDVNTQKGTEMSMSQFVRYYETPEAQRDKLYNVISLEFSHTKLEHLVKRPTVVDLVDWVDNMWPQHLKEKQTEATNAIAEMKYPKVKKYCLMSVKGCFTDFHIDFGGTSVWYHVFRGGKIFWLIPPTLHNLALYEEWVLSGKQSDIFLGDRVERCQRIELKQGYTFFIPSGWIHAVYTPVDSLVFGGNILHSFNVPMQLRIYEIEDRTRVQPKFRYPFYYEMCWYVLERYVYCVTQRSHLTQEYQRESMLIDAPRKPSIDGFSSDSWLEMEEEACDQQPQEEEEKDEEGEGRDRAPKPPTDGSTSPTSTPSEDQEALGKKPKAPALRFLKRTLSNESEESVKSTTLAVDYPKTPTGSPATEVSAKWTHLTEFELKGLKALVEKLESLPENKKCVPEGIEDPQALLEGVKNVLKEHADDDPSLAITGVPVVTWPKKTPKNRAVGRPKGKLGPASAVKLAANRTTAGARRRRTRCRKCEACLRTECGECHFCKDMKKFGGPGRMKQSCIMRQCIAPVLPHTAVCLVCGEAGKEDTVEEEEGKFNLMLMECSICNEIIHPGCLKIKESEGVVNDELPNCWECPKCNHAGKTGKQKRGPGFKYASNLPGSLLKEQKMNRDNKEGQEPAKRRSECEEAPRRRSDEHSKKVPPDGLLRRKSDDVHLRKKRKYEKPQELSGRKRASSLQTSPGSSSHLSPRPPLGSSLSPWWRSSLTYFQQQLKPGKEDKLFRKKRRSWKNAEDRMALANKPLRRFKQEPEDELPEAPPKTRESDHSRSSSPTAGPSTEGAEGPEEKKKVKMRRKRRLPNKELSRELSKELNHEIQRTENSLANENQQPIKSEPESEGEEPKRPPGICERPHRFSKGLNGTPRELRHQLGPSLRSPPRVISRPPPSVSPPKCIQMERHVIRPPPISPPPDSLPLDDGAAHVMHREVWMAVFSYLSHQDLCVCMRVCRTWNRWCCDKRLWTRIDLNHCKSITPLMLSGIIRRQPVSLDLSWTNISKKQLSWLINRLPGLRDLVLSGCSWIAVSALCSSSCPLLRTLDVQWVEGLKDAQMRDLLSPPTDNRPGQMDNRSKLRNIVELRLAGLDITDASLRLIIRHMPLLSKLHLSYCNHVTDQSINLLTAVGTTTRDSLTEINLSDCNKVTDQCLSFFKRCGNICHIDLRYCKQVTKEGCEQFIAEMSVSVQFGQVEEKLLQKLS
7.15

Recall the recorded pIC50 for CCC[C@H]1CCN(C2CCC2)C[C@@H]1C(=O)c1ccc2cc(OC)ccc2c1 (single isomer, unassigned) [Example 140b] with UniProt Q8NHM5 and state it.
6.48

Recall the recorded pIC50 for Cc1noc2cc(C(=O)C3CCCN(CC4CC4)C3)ccc12 (stereo not shown) with UniProt Q8NHM5 and state it.
6.31

Recall the recorded pIC50 for CCCN1CCCC(C(=O)c2ccc(OC)c(OC)c2)C1 (stereo not shown) with UniProt Q8NHM5 and state it.
6.13

Recall the recorded pIC50 for COc1cccc(C(=O)[C@H]2CCCN(CC3CC3)C2)c1 (stereo in doubt) [Example 109b] with UniProt Q8NHM5 and state it.
5.89

Recall the recorded pIC50 for O=C(c1ccc2ccccc2n1)[C@@H]1CCCN(CC2CC2)C1 (stereo in doubt) [Example 117b] with UniProt Q8NHM5 and state it.
6.12

Recall the recorded pIC50 for O=C(c1ccc(-c2ccccc2)nc1)C1CCCN(CC2CC2)C1 (stereo not shown) with UniProt Q8NHM5 and state it.
6.27

Recall the recorded pIC50 for CC1CCN(CC2CC2)CC1C(=O)c1ccc2c(O)cccc2c1 (single isomer, unassigned) [Example 151a] with UniProt Q8NHM5 and state it.
6.50

Recall the recorded pIC50 for CNC(=O)c1cc(C(=O)C2CCCN(C3CCC3)C2)cc2ccccc12 (stereo not shown) with UniProt Q8NHM5 and state it.
6.61

Recall the recorded pIC50 for Cc1cccc2ccc(C(=O)C3CCCN(C4CCCC4)C3)cc12 (stereo not shown) with UniProt Q8NHM5 and state it.
6.76

Recall the recorded pIC50 for `COc1ccc(C(=O)[C@H]2CCCN(C3CCC3)C2)c(OC)c1` with UniProt Q8NHM5 and state it.
6.82

Recall the recorded pIC50 for COc1ccc2cc(C(=O)[C@H]3CN(CC4CC4)CC[C@@H]3C)ccc2c1 (single isomer, unassigned) [Example 137d] with UniProt Q8NHM5 and state it.
5.48

Recall the recorded pIC50 for CCCN1CCCC(C(=O)c2ccc(C(F)(F)F)cc2)C1 (stereo not shown) with UniProt Q8NHM5 and state it.
5.92

Recall the recorded pIC50 for COc1ccc2cc(C(=O)[C@]3(O)CCCN(CC4CC4)C3)ccc2c1 (stereo in doubt) [Example 158b] with UniProt Q8NHM5 and state it.
4.94

Recall the recorded pIC50 for `COc1ccc(C(=O)[C@@H]2CCCN(C3CCC3)C2)c(OC)c1` with UniProt Q8NHM5 and state it.
5.05

Recall the recorded pIC50 for COc1ccc2cc(C(=O)[C@H]3CCCN(C4CCC4)C3)ccc2c1CC#N (stereo in doubt) [Example 179a] with UniProt Q8NHM5 and state it.
8.25

Recall the recorded pIC50 for COc1ccc2cc(C(=O)[C@@H]3CN(C4CCC4)CC[C@@H]3C(C)C)ccc2c1 (single isomer, unassigned) [Example 143a] with UniProt Q8NHM5 and state it.
6.20

Recall the recorded pIC50 for COc1ccc2cc(C(=O)[C@@]3(O)CCCN(CC4CC4)C3)ccc2c1 (stereo in doubt) [Example 158a] with UniProt Q8NHM5 and state it.
5.72

Recall the recorded pIC50 for COc1ccc2cc(C(=O)C3CCCN(C4CCC4)C3)ccc2c1CC#N (stereo not shown) with UniProt Q8NHM5 and state it.
7.88

Recall the recorded pIC50 for O=C(c1cccc(Oc2ccc(F)cc2)c1)C1CCCN(CC2CC2)C1 (stereo not shown) with UniProt Q8NHM5 and state it.
6.66

Recall the recorded pIC50 for CCCN1CCCC(C(=O)c2ccc(Cl)cc2)C1 (stereo not shown) with UniProt Q8NHM5 and state it.
5.80

Recall the recorded pIC50 for O=C(c1ccc2c(O)cccc2c1)C1CCCN(CC2CC2)C1 (stereo not shown) with UniProt Q8NHM5 and state it.
6.88

Recall the recorded pIC50 for N#Cc1cc(C(=O)C2CCCN(CC3CC3)C2)cc2ccccc12 (stereo not shown) with UniProt Q8NHM5 and state it.
6.84

Recall the recorded pIC50 for COc1ccc2cc(C(=O)C3CN(C4CCC4)CCN3C)ccc2c1 (stereo not shown) with UniProt Q8NHM5 and state it.
5.77

Recall the recorded pIC50 for COc1ccc2cc(C(=O)[C@@H]3CN(CC4CC4)CC[C@H]3C)ccc2c1 (single isomer, unassigned) [Example 137b] with UniProt Q8NHM5 and state it.
7.03

Recall the recorded pIC50 for O=C(c1cccc(Cl)c1)[C@@H]1CCCN(CC2CC2)C1 (stereo in doubt) [Example 118a] with UniProt Q8NHM5 and state it.
5.17

Recall the recorded pIC50 for O=C(c1ccc(-c2ccccn2)cc1)C1CCCN(CC2CC2)C1 (stereo not shown) with UniProt Q8NHM5 and state it.
6.22

Recall the recorded pIC50 for O=C(c1cccc(Oc2ccccc2)c1)C1CCCN(CC2CC2)C1 (stereo not shown) with UniProt Q8NHM5 and state it.
6.34

Recall the recorded pIC50 for COc1ccc2cc(C(=O)C3CN(C4CCC4)CCN3Cc3ccc(C#N)cc3)ccc2c1 (stereo not shown) with UniProt Q8NHM5 and state it.
7.51

Recall the recorded pIC50 for O=C(c1ccc2c(c1)CCCC2)C1CCCN(C2CCC2)C1 (stereo not shown) with UniProt Q8NHM5 and state it.
6.99

Recall the recorded pIC50 for O=C(c1ccccc1Cl)C1CCCN(CC2CC2)C1 (stereo not shown) with UniProt Q8NHM5 and state it.
5.27

Recall the recorded pIC50 for Cc1ccc2cc(C(=O)C3CCCN(C4CCC4)C3)ccc2c1 (stereo not shown) [Example 165, hydrochloride] with UniProt Q8NHM5 and state it.
6.79

Recall the recorded pIC50 for `O=C(c1ccc(Oc2ccccc2)cc1)[C@H]1CCCN(CC2CC2)C1` with UniProt Q8NHM5 and state it.
6.87

Recall the recorded pIC50 for COc1ccc2cc(C(=O)C3CN(C4CCC4)CCN3Cc3ccc4ccccc4c3)ccc2c1 (stereo not shown) with UniProt Q8NHM5 and state it.
6.78
